Attribution: ChEMBL document CHEMBL2046268

Tested on: MCF7
measurement.description: Cytotoxicity against human MCF7 cells assessed as cell viability after 72 hrs by MTT assay
Type: functional, cell-based
measurement.conditions: MCF7, 72 h
assay.metric: pIC50
# pIC50 = -log10(concentration in molar units)

Take a look at these entries with their results.
{"smiles.notation": "CC1=C(CO)C(=O)O[C@@H](/C(C)=C2\\[C@@H](O)C[C@H]3[C@@H]4C[C@H]5O[C@]56[C@@H](O)C=CC(=O)[C@]6(C)[C@H]4CC[C@]23C)C1", "pIC50": 5.22}
{"smiles.notation": "CC(=O)OCC1=C(C)C[C@H]([C@@H](C)[C@H]2CC[C@H]3[C@@H]4C[C@H]5O[C@]56[C@@H](O)[C@@H](O)CC(=O)[C@]6(C)[C@H]4CC[C@]23C)OC1=O", "pIC50": 5.15}
{"smiles.notation": "CC1=C(C)C(=O)O[C@@H]([C@@H](C)[C@H]2CC[C@H]3[C@@H]4C[C@H]5O[C@]56[C@@H](O)C=CC(=O)[C@]6(C)[C@H]4CC[C@]23C)C1", "pIC50": 5.96}

# input for lookup
Given `CC1=C(CO)C(=O)O[C@@H]([C@@H](C)[C@H]2CC[C@H]3[C@@H]4C[C@H]5O[C@]56C(=O)C=CC(=O)[C@]6(C)[C@H]4CC[C@]23C)C1` , state its recorded pIC50.
5.68
